# TEST_SYSTEM: Histone deacetylase 8 (Schistosoma mansoni)
# Sequence (whole entry): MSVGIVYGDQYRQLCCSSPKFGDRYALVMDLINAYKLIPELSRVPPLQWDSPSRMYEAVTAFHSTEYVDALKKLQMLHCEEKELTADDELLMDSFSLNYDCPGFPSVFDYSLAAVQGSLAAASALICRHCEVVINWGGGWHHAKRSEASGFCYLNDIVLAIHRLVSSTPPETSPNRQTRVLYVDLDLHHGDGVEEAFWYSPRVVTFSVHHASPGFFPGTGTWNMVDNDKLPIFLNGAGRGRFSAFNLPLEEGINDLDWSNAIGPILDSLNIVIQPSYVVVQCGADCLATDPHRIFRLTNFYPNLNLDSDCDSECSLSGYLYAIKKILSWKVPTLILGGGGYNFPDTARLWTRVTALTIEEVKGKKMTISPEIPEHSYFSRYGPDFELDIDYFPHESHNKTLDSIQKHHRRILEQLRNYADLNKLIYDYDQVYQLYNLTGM
# METHOD_DESCRIPTION: Inhibition of Schistosoma mansoni KDAC8 at 30 uM using (FAM)-labeled peptide as substrate after 60 mins by microfluidic assay
The source made the active and inactive calls. The calls are words filed in the database; no cut-off is given here.
METRIC: inhibition

Sample answers from the record:
CC(C)[C@@H]1NC(=O)[C@@H]2CCCN2C(=O)[C@H]2CCCN2C(=O)C[C@@H](C(=O)NCCCC(=O)NO)NC1=O = 21.2%
COC(=O)CCCNC(=O)[C@@H]1CC(=O)N2CCC[C@H]2C(=O)N2CCC[C@@H]2C(=O)N[C@@H](C(C)C)C(=O)N1 = 0%
CC(C)NCC1CCc2cc(CO)c([N+](=O)[O-])cc2N1 (stereo unspecified) [OXAMNIQUINE] = inactive
O=C(CCCCN1C(=O)CN=C(c2ccccc2)c2ccccc21)NO = 39.7%
C=CCN=C(S)Nc1cccc([N+](=O)[O-])c1 = 2%

The reported inhibition of the molecule Cc1c(COC(=O)N(C)C)c(COC(=O)NC(C)C)c2n1CS(=O)(=O)C2 was inactive

The reported inhibition of the molecule CC(C)(C)OC(=O)n1cc(C[C@@H]2N=C(c3ccccc3)c3ccccc3NC2=O)c2ccccc21 was 11.9%

The reported inhibition of the molecule CCOC(=O)C(Cc1ccc(O)cc1)Nc1nc2ccccc2o1 (stereo unspecified) was inactive

The reported inhibition of the molecule COC(=O)CCCCN1C(=O)[C@H](CCC(=O)NC(c2ccccc2)(c2ccccc2)c2ccccc2)N=C(c2ccccc2)c2ccccc21 was 0%

The reported inhibition of the molecule CC(C)[C@@H]1NC(=O)[C@H]2CCCN2C(=O)[C@@H]2CCCN2C(=O)C[C@H](C(=O)NCCS)NC1=O was 0%

The reported inhibition of the molecule O=C(CCCNC(=O)C[C@@H]1N=C(c2ccccc2)c2ccccc2NC1=O)NO was 70.3%
